- System: M14 melanoma
- Test name: NCI tumour cell line growth inhibition, 48 h
Observation type: TGI

// field: TGI; key: C=C1C(=O)O[C@H]2C1C[C@H](O)[C@@]1(C)OC1CC[C@@]1(C)O[C@H]21 (some centres undefined) ; value = 30.6 µM

// field: TGI; key: COc1cc([C@@H]2c3cc4c(cc3[C@@H](Nc3ccc(Cl)cc3C(=O)c3ccccc3)[C@H]3COC(=O)[C@H]23)OCO4)cc(OC)c1OC ; value = > 100 µM

// field: TGI; key: CC1(C)N=C(N)N=C(N)N1c1cccc(CCc2ccccc2)c1 ; value = > 100 µM

// field: TGI; key: COc1cccc(C23CCN(C)C(CC(O)C2)C3)c1OC (centres undefined) ; value = > 100 µM

// field: TGI; key: Cn1c(=O)c2c(nc(N/N=C/c3ccccc3C(=O)O)n2C)n(C)c1=O ; value = > 100 µM

// field: TGI; key: COC(=O)/C=C\C(C#N)(C#N)N=Cc1ccc(OC)cc1 ; value = 8.77 µM

// field: TGI; key: CO/C(=N\N=C\c1ccc(Cl)c(Cl)c1)c1ccncc1 ; value = > 10 µM

// field: TGI; key: Cc1cc(NS(=O)(=O)c2ccc(N=[N+]([O-])c3ccc(S(=O)(=O)Nc4cc(C)on4)cc3)cc2)no1 ; value = > 100 µM

// field: TGI; key: CN(C)c1ccc(-c2ccc(-c3ccc(C(=N)N)cn3)o2)cc1 ; value = 3.47 µM

// field: TGI; key: O=C(Cc1nc2ccccc2[nH]c1=O)c1c[nH]c2ccccc12 ; value = > 100 µM

// field: TGI; key: COc1cc(OC)c2c(=O)c3cccc(C)c3n(C)c2c1 ; value = > 100 µM

// field: TGI; key: O=C1NC(N/N=C\c2ccccc2)=N/C1=C/c1ccccc1 ; value = > 100 µM

// field: TGI; key: Cc1nn(C(=O)c2ccncc2)c2c1C(c1ccccc1[N+](=O)[O-])SC(N)=N2 (centres undefined) ; value = > 10 µM

// field: TGI; key: CC(=O)c1ccc(Nc2c3ccccc3nc3occc23)cc1 ; value = 2.92 µM

* * *

Exercise: state measured TGI for each of the compounds provided.
- System: HT29 colon
- Test name: NCI tumour cell line growth inhibition, 48 h

Entry CN1CC[C@H](c2c(O)cc(O)c3c(=O)cc(-c4ccccc4Cl)oc23)[C@H](O)C1 under HT29 colon had TGI of > 10 µM

Entry CN(CCc1ccccn1)c1ccc2c(c1)C(=O)c1ccccc1-2 under HT29 colon had TGI of > 100 µM

Entry Cc1cn(C2CC(N=[N+]=[N-])C(COP(=O)(O)OCC3OC(n4cc(F)c(=O)[nH]c4=O)CC3O)O2)c(=O)[nH]c1=O (stereo unspecified) under HT29 colon had TGI of > 100 µM

Entry CC1=CCC(C(C)(C)NC(=O)c2ccccc2)C/C1=N/O (stereo unspecified) under HT29 colon had TGI of > 100 µM

Entry CCc1n[nH]c(=O)n1/N=C(\C)c1ccccc1 under HT29 colon had TGI of > 100 µM

Entry COc1ccc(C)cc1NC(=S)C#N under HT29 colon had TGI of > 100 µM

* * *

- System: SK-MEL-28 melanoma
- Test name: NCI tumour cell line growth inhibition, 48 h
Exercise: state measured TGI for each of the compounds provided.

// field: TGI; key: COCC(C(=O)OC1C/C=C/C=C/C(=O)OC(C(C)C(O)C(C)CCC(OC(=O)C(C)N(C)C)C(C)C(OC(C)=O)C(C)/C=C/N(C)C=O)C/C=C/C(OC)CC(C)C/C=C(\C)C(OC)CCC(C)C(O)C1C)N(C)C (stereo unspecified) ; value = 0.0358 µM

// field: TGI; key: COc1ccccc1NC(=O)C1=C(C)NC(C)=C(C(=O)Nc2ccccc2OC)C1c1ccco1 ; value = > 92 µM

// field: TGI; key: CC(C)(C)OC(=O)CCCCCNC(=O)CCCCCNC(=O)CCC(CN(CC(=O)OCc1ccccc1)CC(=O)OCc1ccccc1)N(CC(=O)OCc1ccccc1)CC(=O)OCc1ccccc1 (stereo unspecified) ; value = > 100 µM

// field: TGI; key: COc1cc2c(c(OC)c1OC)C(=O)NCCC2 ; value = > 100 µM

// field: TGI; key: Cc1cc(-c2nc3c(F)cccc3s2)ccc1N ; value = > 100 µM

// field: TGI; key: COc1cc(-c2nn(-c3cccc(NC(=O)CCNc4ccc(N5CCOCC5)cc4)c3)cc2-c2ccncc2)ccc1Cl ; value = > 100 µM
